Assay: M. tuberculosis growth inhibition, HTS (AID 449762);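 also: bacterial growth assessed after seven days of incubation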
Settings: M. tuberculosis H37Rv growth inhibition, 7H9 media; at 25 µM; hits give high values
The campaign covered roughly 330,000 compounds. About 1,900 (0.58%) were called active. Roughly 4% stayed inconclusive and do not appear here. Not all results are given here. Potency and affinity values are given separately.
Class t: inhibition at least 10%. Class f: inhibition below 10%.

Cc1cc(C)c2cc(C(=O)Nc3ccc4c(c3)OCO4)[nH]c2c1	f

Request: Item "CCc1ccc2[nH]c(C(=O)Nc3ccc(C)c(F)c3)cc2c1" with inhibition of 10% or above?
Result: f

Request: Item COc1ccc(C2NN=C(c3c[nH]c4ccccc34)C2O)cc1 (stereo not given) with inhibition of 10% or above?
Result: f

Request: Item "O=C(CN1CCN(Cc2ccccc2)CC1)N/N=C/C=C/c1ccccc1[N+](=O)[O-]" with inhibition of 10% or above?
Result: t

----------
Assay: M. tuberculosis growth inhibition, HTS (AID 449762);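 also: bacterial growth assessed after seven days of incubation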
Conditions: M. tuberculosis H37Rv growth inhibition, 7H9 media; at 25 µM; hits give high values
Screen size: about 330,000 compounds; about 1,900 (0.58%) were called active. Another 4% or so got no clear call; they are omitted. Not all results are given here. Measured potencies and affinities stand elsewhere.
// values below are reported inhibition
Record the value in %, omitting the unit from your answer.

CC(C)(C)c1ccc(C(=O)C=[N+]=[N-])cc1	-1.15
COc1ccc(NC(=O)c2sc(-c3ccccc3)nc2C)c(OC)c1	3.27
COc1ccc(/C=C/C(=O)c2sc(-c3ccccc3)nc2C)cc1	-17.3
Cc1ccc(S(=O)(=O)N2CCCCC2)cc1NC(=O)C1CCC1	0.72
Cc1cc(NC(=O)CSc2cn(CCNC(=O)c3ccc(Cl)cc3)c3ccccc23)no1	-7.12

Request: Complete the entry with inhibition for "Cc1ccc(N/C=C/C(=O)c2sc(-c3ccccc3)nc2C)cc1"
Result: 11.4

Request: Complete the entry with inhibition for "CN1CCN(S(=O)(=O)c2ccc(SCCOc3ccc(Cl)cc3)nc2)CC1"
Result: -1.28

Request: Complete the entry with inhibition for "Cc1ccc2c(c1)C1(OCCCO1)C(=O)N2CC#N"
Result: -7.17

Request: Complete the entry with inhibition for "CCN(CC)CCN(C(=O)c1ccc(S(=O)(=O)N2CCCCC2)cc1)c1nc2cc3c(cc2s1)OCO3"
Result: 1.42

Request: Complete the entry with inhibition for "CCOC(=O)N1CCN(S(=O)(=O)c2ccc(C(=O)N(CCN(CC)CC)c3nc4ccc(C)cc4s3)cc2)CC1"
Result: -2.86

Request: Complete the entry with inhibition for "CN1CCN(S(=O)(=O)c2ccc(SCCOc3ccccc3)nc2)CC1"
Result: -0.98

----------
Assay: M. tuberculosis growth inhibition, HTS (AID 449762);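 also: bacterial growth assessed after seven days of incubation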
Settings: M. tuberculosis H37Rv growth inhibition, 7H9 media; at 25 µM; hits give high values
Hit rate of the full screen: of about 330,000 compounds, about 1,900 (0.58%) were called active. Inconclusive results (about 4%) are left out. Only a sample is shown. Potency and affinity values are given separately.
TEST READOUT: inhibition (%)
Record the value in %, omitting the unit from your answer.

COCCNC(=O)c1ccccc1NC(=O)CCSc1ccccc1	-2.26
CCc1ccc(/C=C2/C(=O)N(CC)C(=S)N2C)s1	12.3
COc1ccc2c(c1)O[C@@H](c1cccc(C(F)(F)F)c1)[C@H](OC(=O)NCCc1ccc(OC)c(OC)c1)C2=O	8.51
O=C(CNC(=O)C1CCCCC1)OCn1nnc2ccccc2c1=O	12.9
COC(=O)[C@@H](NC(=O)O[C@@H]1C(=O)c2cc(Br)ccc2O[C@H]1c1cccc(OC)c1)C(C)C	8.75
COc1cccc(CNc2ccc3c(c2)ncn3C)c1OC	8
CCOc1cc(/C=C\[N+](=O)[O-])ccc1OCC(=O)N1CCOCC1	3.95
O=C(CSc1nc2ccccc2o1)N1CCOCC1	-2.89

Request: Complete the entry with inhibition for CCc1ccc2c(c1)C1(NN=C(c3ccc(C)cc3)S1)C(=O)N2 (centres undefined)
Result: 5.72
